# SYSTEM: Hfq WT (Table 3) (Escherichia coli, UniProt P0A6X3 2-69)
# ASSAY_METHOD_TEXT: fluorescence polarization
MEASURED_PARAMETER: pKd
The value called pKd is obtained by taking minus log10 of the concentration in mol/L.

>>> print(df.to_string())
                                     binder  assay_value
0  AUUUUUUCGAAUCGAAAGGUUCA (structured_RNA) [site A]         7.64

Form: binder = CAUGAUUCUUAUACGUACGACGGAAGAUGAGAAUUAUGGU (structured_RNA) [Hairpin 2] ; pKd = 7.21
